# Species on record: Rattus norvegicus
# Test: Open TG-GATES - Regimen: Daily Repeat
# Assay type: toxicity, organism-based, Sprague-Dawley
# Design: regimen Daily Repeat, gender Male, age 6 weeks
# Run Conditions: in vivo, po, 0 mg/kg, […], tissue Blood, route gavage, dose level Control, time 28 day
Entries annotated with measured Mono
Reply numerically in %, unit not repeated.

Worked cases, answers included:
INSERT INTO assay_data (compound, recorded_measurement) VALUES
  ('COc1ccc(O)c(C(C)(C)C)c1.COc1ccc(O)cc1C(C)(C)C [BUTYLATED HYDROXYANISOLE]', 1.8),
  ('COc1ccc(Cl)cc1C(=O)NCCc1ccc(S(=O)(=O)NC(=O)NC2CCCCC2)cc1 [GLYBURIDE]', 2),
  ('Cn1cnc([N+](=O)[O-])c1Sc1ncnc2nc[nH]c12', 1.4),
  ('O=P1(N(CCCl)CCCl)NCCCO1 (stereo unspecified) [CYCLOPHOSPHAMIDE ANHYDROUS]', 2),
  ('C=CCO', 2.4);

Mono for Cn1c(=O)c2c(ncn2C)n(C)c1=O is 1.6

----------
Entries annotated with measured BUN
# Organism: Rattus norvegicus
# Test: Open TG-GATES - Regimen: Daily Repeat
# Format: toxicity, organism-based, Sprague-Dawley
# Set-up: regimen Daily Repeat, gender Male, age 6 weeks
# Run Conditions: in vivo, po, 0 mg/kg, […], tissue Plasma, route gavage, dose level Control, time 28 day
Reply numerically in mg/dL, unit not repeated.

INSERT INTO results (compound, recorded_measurement) VALUES
  ('O=P1(N(CCCl)CCCl)NCCCO1 (centres undefined) [CYCLOPHOSPHAMIDE ANHYDROUS]', 17.4),
  ('COc1ccc(Cl)cc1C(=O)NCCc1ccc(S(=O)(=O)NC(=O)NC2CCCCC2)cc1 [GLYBURIDE]', 16.8),
  ('CS(=O)(=O)Nc1ccc([N+](=O)[O-])cc1Oc1ccccc1 [NIMESULIDE]', 20.2);

BUN for Cc1cnc(NC(=O)C2=C(O)c3ccccc3S(=O)(=O)N2C)s1 [MELOXICAM] is 18.2

BUN for Cc1cccc(Nc2cc(Cl)nc(SCC(=O)O)n2)c1C [PIRINIXIC ACID] is 14

BUN for COc1ccc(O)c(C(C)(C)C)c1.COc1ccc(O)cc1C(C)(C)C [BUTYLATED HYDROXYANISOLE] is 17.8

BUN for C=CCO [ALLYL ALCOHOL] is 15.4

BUN for O=C1CN(/N=C/c2ccc(-c3ccc([N+](=O)[O-])cc3)o2)C(O)=N1 [DANTROLENE] is 18

BUN for Cn1cnc([N+](=O)[O-])c1Sc1ncnc2nc[nH]c12 [AZATHIOPRINE] is 18.6

----------
# Species on record: Rattus norvegicus
# Test: Open TG-GATES - Regimen: Daily Repeat
# Type: toxicity, organism-based, Sprague-Dawley
# Set-up: regimen Daily Repeat, gender Male, age 6 weeks
# Run Conditions: in vivo, po, 0 mg/kg, […], tissue Plasma, route gavage, dose level Control, time 28 day
Entries annotated with measured Cl
Reply numerically in meq/L, unit not repeated.

Cl for Cc1cccc(Nc2cc(Cl)nc(SCC(=O)O)n2)c1C is 106.6

----------
Entries annotated with measured BUN
# Species on record: Rattus norvegicus
# Test: Open TG-GATES - Regimen: Daily Repeat
# Assay type: toxicity, organism-based, Sprague-Dawley
# Design: regimen Daily Repeat, gender Male, age 6 weeks
# Run Conditions: in vivo, po, 0 mg/kg, […], tissue Plasma, route gavage, dose level Control, time 7 day
Reply numerically in mg/dL, unit not repeated.

Worked cases, answers included:
INSERT INTO assay_data (compound, recorded_measurement) VALUES
  ('COc1ccc(O)c(C(C)(C)C)c1.COc1ccc(O)cc1C(C)(C)C [BUTYLATED HYDROXYANISOLE]', 16),
  ('O=C1CN(/N=C/c2ccc(-c3ccc([N+](=O)[O-])cc3)o2)C(O)=N1', 18.2),
  ('Cc1cccc(Nc2cc(Cl)nc(SCC(=O)O)n2)c1C', 19.4),
  ('COc1ccc(Cl)cc1C(=O)NCCc1ccc(S(=O)(=O)NC(=O)NC2CCCCC2)cc1 [GLYBURIDE]', 16.8),
  ('O=P1(N(CCCl)CCCl)NCCCO1 (centres undefined) [CYCLOPHOSPHAMIDE ANHYDROUS]', 18.6),
  ('Cn1cnc([N+](=O)[O-])c1Sc1ncnc2nc[nH]c12', 20.2),
  ('Cc1cnc(NC(=O)C2=C(O)c3ccccc3S(=O)(=O)N2C)s1', 15.8),
  ('CS(=O)(=O)Nc1ccc([N+](=O)[O-])cc1Oc1ccccc1 [NIMESULIDE]', 19.2);

BUN for C=CCO is 16.6
